measurementTarget: Cytochrome P450 11B1, mitochondrial (Homo sapiens)
Sequence (P15538 whole entry): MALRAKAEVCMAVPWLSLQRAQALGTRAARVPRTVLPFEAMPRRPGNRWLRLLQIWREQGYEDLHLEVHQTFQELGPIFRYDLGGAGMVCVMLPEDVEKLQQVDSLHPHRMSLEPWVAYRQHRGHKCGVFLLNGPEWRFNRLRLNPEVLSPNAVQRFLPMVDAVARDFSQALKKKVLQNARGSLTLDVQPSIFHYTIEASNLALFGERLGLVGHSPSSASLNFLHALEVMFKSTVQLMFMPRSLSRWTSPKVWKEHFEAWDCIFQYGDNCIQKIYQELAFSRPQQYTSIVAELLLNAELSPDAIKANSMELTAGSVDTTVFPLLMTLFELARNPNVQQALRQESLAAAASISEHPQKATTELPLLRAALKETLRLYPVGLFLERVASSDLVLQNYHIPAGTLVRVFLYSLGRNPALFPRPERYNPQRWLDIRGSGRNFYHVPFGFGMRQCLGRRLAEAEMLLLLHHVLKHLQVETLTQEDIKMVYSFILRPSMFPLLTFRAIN
assaySummary: Inhibition Assay: The expression plasmids contains the ORF for either human/cyno CYP11B1 or CYP11B2 under the control of a suitable promoter (CMV-promoter) and a suitable resistance marker (neomycin). Using standard techniques the expression plasmid is transfected into G-402 cells and these cells are then selected for expressing the given resistance markers. Individual cell-clones are then selected and assessed for displaying the desired enzymatic activity using 11-Deoxycorticosterone (Cyp11B2) or 11-Deoxycortisol (Cyp11B1) as a substrate.G-402 cells expressing CYP11 constructs were established as described above and maintained in McCoy's 5a Medium Modified, ATCC Catalog No. 30-2007 containing 10% FCS and 400 μg/ml G418 (Geneticin) at 37° C. under an atmosphere of 5% CO2/95% air. Cellular enzyme assays were performed in DMEM/F12 medium containing 2.5% charcoal treated FCS and appropriate concentration of substrate (0.3-10 uM 11-Deoxycorticosterone, 11-Deoxycortisol or Corticosterone). For assaying enzymatic activity, cells were plated onto 96 well plates and incubated for 16 h. An aliquot of the supernatant is then transferred and analyzed for the concentration of the expected product (Aldosterone for CYP11B2; Cortisol for CYP11B1). The concentrations of these steroids can be determined using HTRF assays from CisBio analyzing either Aldosterone or Cortisol.
Here, each record is paired with measured log10 of EC50 data.
Lab note - EC50 converted to log10 from values in nM.

Use the examples below as a reference point.
CC(=O)N1CCC(C(C)c2c[nH]nc2-c2ccc3c(c2F)CCC(=O)N3C)CC1 (racemic) : -1.31
CC(=O)N1CCC([C@@H](C)c2c[nH]nc2-c2ccc3c(c2F)CCC(=O)N3C)CC1 (single isomer, unassigned) : -1.13
CN1C(=O)CCc2c1ccc(-c1n[nH]cc1CC1CCN(S(=O)(=O)c3ccnn3C)CC1)c2F : -0.15
CC(=O)N1CCC(C(C)c2c[nH]nc2-c2cc3c(cc2F)N(C)C(=O)CC3)CC1 (racemic) : -1.17

Query molecule follows.
Ask: May I ask what log10 of EC50 has been recorded for `CN1C(=O)CCc2c1ccc(-c1n[nH]cc1CC1CCN(C(=O)c3ccnn3C)CC1)c2F` ?
Reply: -1.12
